Origin of the recorded values: paper PMC10292028

# Substrate: N[C@@H](Cc1c[nH]c2ccccc12)C(=O)O
# test.name: HPLC end-point assay, Michaelis-Menten fit
# Type: biochemical, Micromonospora olivasterospora
# details: 2 mM DMAPP, 50 mM Tris pH 8.0, 37 °C
kcat by entry:
recorded.endpoint: kcat

INSERT INTO assay_data (protein, data_value) VALUES
  ('6DMATSmo (Micromonospora olivasterospora; H329Y/Y277H) (protein) MAGLSVSDHLDGQLARLCEVAGADPVEPRNLLAGLLGPVGPRPLYEPPAWPSGVSDDHTPVEFSIAFNEAEPPTLRILGETLGSPPGPLANLSATRGFLDAQARRAGLSTSRLDSVRDLFATDDPQGDFAMWCSLVFRSSRRPEFKVYLNPEVKGVERSPALVSEALHRLGLGASYRALLDHGVRPGELGRGDRLTFFAVDLHDGPQARVKLYLTHHEAEVWDVTRAASVVDGVDVAEIEEFCVVAGGGTRRFDGRPLVGSYTFTEGADRPVGYSIHVPIRSYVTDDQEARDRVAALLVRYGFDTDGLDRAIAAVTPRPLRDGVGLIAYVSLRLGAPRPGVTVYLSAEAYRVSPPRPRRMPAGRDVSPAPVGRTRP', '0.00182 s⁻¹'),
  ('6DMATSmo (Micromonospora olivasterospora) (protein) MAGLSVSDHLDGQLARLCEVAGADPVEPRNLLAGLLGPVGPRPLYEPPAWPSGVSDDHTPVEFSIAFNEAEPPTLRILGETLGSPPGPLANLSATRGFLDAQARRAGLSTSRLDSVRDLFATDDPQGDFAMWCSLVFRSSRRPEFKVYLNPEVKGVERSPALVSEALHRLGLGASYRALLDHGVRPGELGRGDRLTFFAVDLHDGPQARVKLYLTHHEAEVWDVTRAASVVDGVDVAEIEEFCVVAGGGTRRFDGRPLVGSYTFTEGADRPVGYSIYVPIRSYVTDDQEARDRVAALLVRYGFDTDGLDRAIAAVTPRPLRDGVGLIAHVSLRLGAPRPGVTVYLSAEAYRVSPPRPRRMPAGRDVSPAPVGRTRP', '0.0917 s⁻¹'),
  ('6DMATSmo (Micromonospora olivasterospora; H329Y) (protein) MAGLSVSDHLDGQLARLCEVAGADPVEPRNLLAGLLGPVGPRPLYEPPAWPSGVSDDHTPVEFSIAFNEAEPPTLRILGETLGSPPGPLANLSATRGFLDAQARRAGLSTSRLDSVRDLFATDDPQGDFAMWCSLVFRSSRRPEFKVYLNPEVKGVERSPALVSEALHRLGLGASYRALLDHGVRPGELGRGDRLTFFAVDLHDGPQARVKLYLTHHEAEVWDVTRAASVVDGVDVAEIEEFCVVAGGGTRRFDGRPLVGSYTFTEGADRPVGYSIYVPIRSYVTDDQEARDRVAALLVRYGFDTDGLDRAIAAVTPRPLRDGVGLIAYVSLRLGAPRPGVTVYLSAEAYRVSPPRPRRMPAGRDVSPAPVGRTRP', '0.000783 s⁻¹');
